Entries annotated with measured EC2
- Tested on: Premature termination codon
- method: Induction of read through activity at T-p53 R213X mutant premature termination codon in human HDQ-P1 cells assessed as increase in production of full length p53 protein by MSD assay
- Format: cell-based
measured_metric: EC2

{"molecular_string": "Cc1nc(NC(=N)N(C)CCCN(C)C)nc2ccccc12", "measured_metric": "EC2", "result": "> 30 µM"}
{"molecular_string": "Cc1nc(NC(=N)NCCCN(C)CC(F)(F)F)nc2ccccc12", "measured_metric": "EC2", "result": "> 30 µM"}
{"molecular_string": "Cc1nc(NC(=N)NCC(F)(F)CN(C)C)nc2ccccc12", "measured_metric": "EC2", "result": "> 30 µM"}
{"molecular_string": "Cc1nc(NC(=N)NCC(=O)O)nc2cc(F)ccc12", "measured_metric": "EC2", "result": "> 100 µM"}
{"molecular_string": "Cc1nc(NS(N)(=O)=O)nc2cc(Cl)ccc12", "measured_metric": "EC2", "result": "> 100 µM"}
{"molecular_string": "Cc1ccnc(NC(=N)NCCCN(C)C)n1", "measured_metric": "EC2", "result": "> 30 µM"}
{"molecular_string": "Cc1ccc2c(C)cc(NC(=N)N)nc2c1", "measured_metric": "EC2", "result": "> 100 µM"}
{"molecular_string": "Cc1nc(NC(N)=O)nc2cc(Cl)ccc12", "measured_metric": "EC2", "result": "> 100 µM"}
{"molecular_string": "Cc1nc(N)nc2ccccc12", "measured_metric": "EC2", "result": "> 100 µM"}
{"molecular_string": "Cc1nc(NC(=N)NCCCN2CCCC2)nc(C)c1-c1ccoc1", "measured_metric": "EC2", "result": "> 30 µM"}
{"molecular_string": "C/N=C(/NCCCN(C)C)Nc1nc(C)c2ccccc2n1", "measured_metric": "EC2", "result": "> 30 µM"}
{"molecular_string": "Cc1nc(NC(=N)Nc2cccc(N(C)C)c2)nc2cc(Cl)ccc12", "measured_metric": "EC2", "result": "> 30 µM"}
{"molecular_string": "Cc1ccc2cnc(NC(=N)N)nc2c1", "measured_metric": "EC2", "result": "> 100 µM"}
{"molecular_string": "Cc1nc(NC(=N)N)cc2ccccc12", "measured_metric": "EC2", "result": "> 100 µM"}
{"molecular_string": "Cc1nc(NC(=N)NCCCN(C)CC(=O)O)nc2ccccc12", "measured_metric": "EC2", "result": "> 30 µM"}
